test system: Five-mutation enzyme (five-mutation D-type amino acid dehydrogenase, SEQ ID NO: 14); assay: D-amino acid synthesis activity (amination of 2-oxo acid), five-mutation enzyme; type: biochemical, Thermosyntropha lipolytica; details: NADH 0.1 mM, 5 mM 2-oxoacid, 200 mM ammonium chloride, glycine buffer pH 9.5, 50° C.
Rule: D-amino acid synthesis activity (specific activity), Five-mutation enzyme, NADH below 0.04 µmol/min/mg gives Criterion met. Equal to or above 0.04 µmol/min/mg gives Criterion not met.

{"STRUCTURE": "CC(=O)C(=O)O", "LABEL VALUE": "Criterion met"}
{"STRUCTURE": "CC(C)CC(=O)C(=O)O", "LABEL VALUE": "Criterion not met"}
{"STRUCTURE": "CC(C)C(=O)C(=O)O", "LABEL VALUE": "Criterion not met"}
{"STRUCTURE": "O=C(O)CC(=O)C(=O)O", "LABEL VALUE": "Criterion not met"}
{"STRUCTURE": "CCCCCCC(=O)C(=O)O", "LABEL VALUE": "Criterion met"}
{"STRUCTURE": "CCC(=O)C(=O)O", "LABEL VALUE": "Criterion not met"}

----------
system: Six-mutation enzyme (Asp94Ser, Met154Leu, Val158Gly, Thr173Ile, Arg183Met, His229Asn; SEQ ID NO: 8); test: D-amino acid synthesis activity (amination of 2-oxo acid), six-mutation enzyme; type: biochemical, Thermosyntropha lipolytica; conditions: NADH 0.1 mM, 5 mM 2-oxoacid, 200 mM ammonium chloride, glycine buffer pH 9.5, 50° C.
Items are presented alongside their recorded D-amino acid synthesis activity (specific activity), Six-mutation enzyme, NADH.
READOUT TYPE: D-amino acid synthesis activity (specific activity), Six-mutation enzyme, NADH (µmol/min/mg)

{"STRUCTURE": "CCCCCCC(=O)C(=O)O", "UNIT ANNOTATION": "µmol/min/mg", "NUMBER": 0.0098}
{"STRUCTURE": "O=C(O)CC(=O)C(=O)O", "UNIT ANNOTATION": "µmol/min/mg", "NUMBER": 0.12}
{"STRUCTURE": "CC(=O)C(=O)O", "UNIT ANNOTATION": "µmol/min/mg", "NUMBER": 0.0053}
{"STRUCTURE": "CC(C)C(=O)C(=O)O", "UNIT ANNOTATION": "µmol/min/mg", "NUMBER": 0.18}
{"STRUCTURE": "CCC(=O)C(=O)O", "UNIT ANNOTATION": "µmol/min/mg", "NUMBER": 0.032}

----------
system: Wild type D-type amino acid dehydrogenase derived from T. lipolytica; experiment: D-amino acid synthesis activity (amination of 2-oxo acid), wild type enzyme; format: biochemical, Thermosyntropha lipolytica; details: NADPH 0.1 mM, 5 mM 2-oxoacid, 200 mM ammonium chloride, glycine buffer pH 9.5, 50° C.
Items are presented alongside their recorded D-amino acid synthesis activity (specific activity), Wild type, NADPH.
READOUT TYPE: D-amino acid synthesis activity (specific activity), Wild type, NADPH (µmol/min/mg)

{"STRUCTURE": "O=C(O)CC(=O)C(=O)O", "NUMBER": 5.7}
{"STRUCTURE": "CCC(=O)C(=O)O", "NUMBER": 2.3}
{"STRUCTURE": "CC(C)C(=O)C(=O)O", "NUMBER": 0.33}
{"STRUCTURE": "CC(=O)C(=O)O", "NUMBER": 5.3}

----------
Items are presented alongside their recorded D-amino acid synthesis activity (specific activity), Wild type, NADPH.
system: Wild type D-type amino acid dehydrogenase derived from T. lipolytica; test: D-amino acid synthesis activity (amination of 2-oxo acid), wild type enzyme; assay type: biochemical, Thermosyntropha lipolytica; conditions: NADPH 0.1 mM, 5 mM 2-oxoacid, 200 mM ammonium chloride, glycine buffer pH 9.5, 50° C.
READOUT TYPE: D-amino acid synthesis activity (specific activity), Wild type, NADPH

{"STRUCTURE": "CCCCCCC(=O)C(=O)O", "RESULT": "0.101 ± 0.010 µmol/min/mg"}
{"STRUCTURE": "CSCCC(=O)C(=O)O", "RESULT": "0.059 ± 0.0065 µmol/min/mg"}
{"STRUCTURE": "O=C(O)CCC(=O)C(=O)O", "RESULT": "0.27 ± 0.010 µmol/min/mg"}
{"STRUCTURE": "CC(C)CC(=O)C(=O)O", "RESULT": "0.061 ± 0.00082 µmol/min/mg"}

----------
tested on: Five-mutation enzyme (five-mutation D-type amino acid dehydrogenase, SEQ ID NO: 14); assay: D-amino acid synthesis activity (amination of 2-oxo acid), five-mutation enzyme; format: biochemical, Thermosyntropha lipolytica; settings: NADPH 0.1 mM, 5 mM 2-oxoacid, 200 mM ammonium chloride, glycine buffer pH 9.5, 50° C.
READOUT TYPE: D-amino acid synthesis activity (specific activity), Five-mutation enzyme, NADPH

{"COMPOUND": "CC(C)C(=O)C(=O)O [2-oxo-3-methylbutanoic acid/D-valine, 2-oxo-3-methylbutanoic acid]", "RESULT": "0.11 ± 0.0034 µmol/min/mg"}
{"COMPOUND": "CCC(=O)C(=O)O [2-oxobutanoic acid/D-2-aminobutyric acid, 2-oxobutanoic acid]", "RESULT": "0.13 ± 0.0020 µmol/min/mg"}
{"COMPOUND": "O=C(O)CCC(=O)C(=O)O [2-oxoglutaric acid/D-glutamic acid, 2-oxoglutaric acid]", "RESULT": "0.039 ± 0.0073 µmol/min/mg"}
{"COMPOUND": "O=C(O)CC(=O)C(=O)O [2-oxobutanedioic acid/D-aspartic acid, 2-oxobutanedioic acid]", "RESULT": "0.60 ± 0.035 µmol/min/mg"}
{"COMPOUND": "CC(=O)C(=O)O [2-oxopropanoic acid/D-alanine, 2-oxopropanoic acid]", "RESULT": "0.071 ± 0.00074 µmol/min/mg"}
{"COMPOUND": "CSCCC(=O)C(=O)O [2-oxo-4-(methylthio) butanoic acid]", "RESULT": "0.18 ± 0.0022 µmol/min/mg"}
{"COMPOUND": "O=C(O)C(=O)Cc1ccccc1 [2-oxo-3-phenylpropanoic acid]", "RESULT": "0.068 ± 0.0039 µmol/min/mg"}
{"COMPOUND": "CCCCCCC(=O)C(=O)O [2-oxooctanoic acid]", "RESULT": "0.47 ± 0.012 µmol/min/mg"}
{"COMPOUND": "CC(C)CC(=O)C(=O)O [2-oxo-4-methylpentanoic acid/D-leucine, 2-oxo-4-methylpentanoic acid]", "RESULT": "0.20 ± 0.0071 µmol/min/mg"}

----------
system: Six-mutation enzyme (Asp94Ser, Met154Leu, Val158Gly, Thr173Ile, Arg183Met, His229Asn; SEQ ID NO: 8); experiment: D-amino acid synthesis activity (amination of 2-oxo acid), six-mutation enzyme; type: biochemical, Thermosyntropha lipolytica; conditions: NADPH 0.1 mM, 5 mM 2-oxoacid, 200 mM ammonium chloride, glycine buffer pH 9.5, 50° C.
Items are presented alongside their recorded D-amino acid synthesis activity (specific activity), Six-mutation enzyme, NADPH.
READOUT TYPE: D-amino acid synthesis activity (specific activity), Six-mutation enzyme, NADPH (µmol/min/mg)

{"MOLECULE": "CCCCCCC(=O)C(=O)O [2-oxooctanoic acid]", "NUMBER": 0.35}
{"MOLECULE": "O=C(O)C(=O)Cc1ccccc1 [2-oxo-3-phenylpropanoic acid]", "NUMBER": 0.036}
{"MOLECULE": "O=C(O)CCC(=O)C(=O)O [2-oxoglutaric acid/D-glutamic acid, 2-oxoglutaric acid]", "NUMBER": 0.067}
{"MOLECULE": "CC(C)C(=O)C(=O)O [2-oxo-3-methylbutanoic acid/D-valine, 2-oxo-3-methylbutanoic acid]", "NUMBER": 0.058}
{"MOLECULE": "CC(=O)C(=O)O [2-oxopropanoic acid/D-alanine, 2-oxopropanoic acid]", "NUMBER": 0.044}
{"MOLECULE": "CC(C)CC(=O)C(=O)O [2-oxo-4-methylpentanoic acid/D-leucine, 2-oxo-4-methylpentanoic acid]", "NUMBER": 0.11}
{"MOLECULE": "CSCCC(=O)C(=O)O [2-oxo-4-(methylthio) butanoic acid]", "NUMBER": 0.089}
{"MOLECULE": "O=C(O)CC(=O)C(=O)O [2-oxobutanedioic acid/D-aspartic acid, 2-oxobutanedioic acid]", "NUMBER": 0.32}
{"MOLECULE": "CCC(=O)C(=O)O [2-oxobutanoic acid/D-2-aminobutyric acid, 2-oxobutanoic acid]", "NUMBER": 0.077}

----------
tested on: Wild type D-type amino acid dehydrogenase derived from T. lipolytica; test: D-amino acid synthesis activity (amination of 2-oxo acid), wild type enzyme; type: biochemical, Thermosyntropha lipolytica; conditions: NADH 0.1 mM, 5 mM 2-oxoacid, 200 mM ammonium chloride, glycine buffer pH 9.5, 50° C.
We use 0.4 µmol/min/mg as the dividing line for D-amino acid synthesis activity (specific activity), Wild type, NADH: on or above the line is 1 (yes), below is 0 (no).

{"STRUCTURE": "CC(C)CC(=O)C(=O)O", "LABEL VALUE": "0 (no)"}
{"STRUCTURE": "CSCCC(=O)C(=O)O", "LABEL VALUE": "0 (no)"}
{"STRUCTURE": "O=C(O)CC(=O)C(=O)O", "LABEL VALUE": "1 (yes)"}
{"STRUCTURE": "CC(C)C(=O)C(=O)O", "LABEL VALUE": "1 (yes)"}
{"STRUCTURE": "O=C(O)C(=O)Cc1ccccc1", "LABEL VALUE": "0 (no)"}
{"STRUCTURE": "CC(=O)C(=O)O", "LABEL VALUE": "1 (yes)"}
{"STRUCTURE": "CCC(=O)C(=O)O", "LABEL VALUE": "0 (no)"}
